Test: cytotoxicity toward DRD oncogenic fibroblasts, dose response, cell-based, non-viral oncogenic, luminescence (AID 1934)
Format: functional
Settings: Homo sapiens
Activity calls are given as the source filed them. Rule as the data show it: actives have a measured EC50 and inactives only a lower limit.
Exercise: for every item that follows, state its recorded EC50.

O=C(CCCCCCCCCCC(=O)NCc1cccnc1)NCc1cccnc1 yielded EC50 of > 150 µM (not active)

The recorded EC50 for entry O=C1C(=O)N(C/C=C/c2ccccc2)c2ccccc21 equals 39.8 µM (active)

According to the records, this compound COCCCNC(=O)c1ccc2c3c(onc13)-c1ccccc1C2=O displays EC50 of 8.59 µM (active)

# EC50 of CCN(CC)C(=O)c1ccc(NC(=O)Nc2ccccc2F)cc1 = 3.5 µM (active)

src = ChEMBL document CHEMBL1201862
